- protocol_description: Cytotoxic activity, MTT assay
- Format: cell-based
- setup_conditions: mouse, L929 fibroblast cells; 48 h; read-out: IC50 L929 (cytotoxicity)
Listed next: entries and their corresponding IC50 at 48 h.
test_readout: IC50 at 48 h (µg/mL)

In [3]: df
Out[3]:
                                   compound  units_text  observed_value
0  O=C(Cn1ccnc1[N+](=O)[O-])NCc1ccccc1 [Benznidazole]       µg/mL             822
1  CCCCCCCCCCCCCCCCOP(=O)([O-])OCC[N+](C)(C)C [Miltefosine]       µg/mL            33.5

Each recorded value in this set is attributed to paper PMC12162769.
